Measured IC50 on UniProt:P04585 follows.

Below, each entry is followed by its recorded IC50 result.
Compound	Property	Val
Cc1nc(C(CN)NC(=O)c2ccc(-c3ccc(Cl)c(F)c3)[nH]2)sc1CO (single isomer, unassigned)	IC50	> 100 µM
NCC(NC(=O)c1ccc(-c2ccc(Cl)c(F)c2)[nH]1)c1ncc(CO)s1 (single isomer, unassigned)	IC50	> 100 µM

We next turn to a different compound, shown below.
Query block: Under UniProt:P04585, report IC50 for Cc1nc(C(NC(=O)c2ccc(-c3ccc(Cl)cc3)[nH]2)C2CCCCN2)sc1CO (single isomer, unassigned)
Result block: > 100 µM

====

Listed next: entries and their corresponding CC50.
Test system: TZM-bl cells
Assay: Cytotoxicity in TZM-bl cells (XTT)
Type: cell-based
Details: XTT, 3 days
Give your result in µM as a bare value.

Below, each entry is followed by its recorded CC50 result.
Compound	Result units	CC50
CNCCC(NC(=O)c1ccc(-c2ccc(Cl)c(F)c2)[nH]1)c1nc(C)c(CO)s1 (single isomer, unassigned)	µM	22
CNCC(NC(=O)c1ccc(-c2ccc(Cl)c(F)c2)[nH]1)c1ncc(CO)s1 (single isomer, unassigned) [Compound 116]	µM	17.4

We next turn to a different compound, shown below.
Query block: Give me measured CC50, please, for this compound: Cc1nc(C(CCN)NC(=O)c2ccc(-c3ccc(Cl)cc3)[nH]2)sc1CO (single isomer, unassigned)
Result block: 41

====

Assay: Cytotoxicity in TZM-bl cells (XTT)
Format: cell-based
Conditions: human, XTT, 3 days
Property: CC50 at 3 days (µM)
Give your result in µM as a bare value.

Below, each entry is followed by its recorded CC50 at 3 days result.
Compound	Result units	CC50 at 3 days
CNCCC(NC(=O)c1ccc(-c2ccc(C)c(F)c2)[nH]1)c1nc(C)c(CO)s1 (single isomer, unassigned)	µM	36.4
Cc1ccc(-c2ccc(C(=O)NC(CCN(C)C)c3nc(C)c(CO)s3)[nH]2)cc1F (single isomer, unassigned)	µM	36.4

Query block: Give me measured CC50 at 3 days, please, for this compound: NCC(NC(=O)c1ccc(-c2ccc(Cl)cc2)[nH]1)c1ncc(CO)s1 (single isomer, unassigned)
Result block: 38

Query block: Give me measured CC50 at 3 days, please, for this compound: Cc1nc(C(CCN)NC(=O)c2ccc(-c3ccc(Cl)c(F)c3)[nH]2)sc1CO (single isomer, unassigned)
Result block: 22.9

====

Test system: MT-2 cells
Experiment: Cytotoxicity in MT-2 cells (XTT)
Assay type: cell-based
Details: 4 days
Property: CC50

Query block: Give me measured CC50, please, for this compound: Cc1nc(C(NC(=O)C(=O)Nc2ccc(Cl)cc2)C2CCCCN2)sc1CO (stereo not shown)
Result block: > 108 µM

====

Test system: TZM-bl cells
Assay: Cytotoxicity in TZM-bl cells (XTT)
Format: cell-based
Conditions: XTT, 3 days
Decide using CC50 alone. Strictly below 30 µM: 1. Equal to or above 30 µM: 0.

Worked examples, 8 compounds total:
Compound	Assigned class
Cc1ccc(-c2ccc(C(=O)NC(CN)c3ncc(CO)s3)[nH]2)cc1F (single isomer, unassigned) [Compound 99]	0
CNCC(NC(=O)c1ccc(-c2cc(F)c(Cl)c(F)c2)[nH]1)c1ncc(CO)s1 (single isomer, unassigned) [Compound 128]	1
Cc1nc(C(CCN)NC(=O)c2ccc(-c3ccc(Cl)c(F)c3)[nH]2)sc1CO (single isomer, unassigned) [Compound 87]	0
Cc1nc(C(CN)NC(=O)c2ncc(-c3ccc(Cl)cc3)[nH]2)sc1CO (single isomer, unassigned) [Compound 96]	0
COc1ccc(-c2ccc(C(=O)NC(CN)c3ncc(CO)s3)[nH]2)cc1OC (single isomer, unassigned) [Compound 130]	0
CC(=O)NCC(NC(=O)c1ccc(-c2ccc(Cl)c(F)c2)[nH]1)c1nc(C)c(CO)s1 (single isomer, unassigned) [Compound 60]	0
Cc1nc(C(NC(=O)c2ccc(-c3ccc(Cl)c(F)c3)[nH]2)C2CCCCN2)[nH]c1CO (single isomer, unassigned) [Compound 36]	0
COc1cc(C(=O)NC(CN)c2nc(C)c(CO)s2)[nH]c1-c1ccc(Cl)cc1 (single isomer, unassigned) [Compound 106]	1

Query block: Input Cc1cc(-c2ccc(Cl)cc2)[nH]c1C(=O)NC(CN)c1nc(C)c(CO)s1 (single isomer, unassigned) [Compound 70] ; condition: CC50 strictly below 30 µM. Does it hold?
Result block: 1

Query block: Input Cc1nc(C(CN)NC(=O)c2ccc(-c3ccc(Cl)c(F)c3)[nH]2)sc1CO (single isomer, unassigned) [Compound 41] ; condition: CC50 strictly below 30 µM. Does it hold?
Result block: 0

Query block: Input Cc1ccc(-c2ccc(C(=O)NC(CN)c3nc(C)c(CO)s3)[nH]2)cc1F (single isomer, unassigned) [Compound 44] ; condition: CC50 strictly below 30 µM. Does it hold?
Result block: 0

Query block: Input CC(=O)NCC(NC(=O)c1ccc(-c2ccc(Cl)c(F)c2)[nH]1)c1nc(C)c(CO)s1 (single isomer, unassigned) [Compound 61] ; condition: CC50 strictly below 30 µM. Does it hold?
Result block: 0

Query block: Input Cc1nc(C(CN)NC(=O)c2ccc(-c3ccc(Cl)c(F)c3)[nH]2)sc1CO (single isomer, unassigned) [Compound 52] ; condition: CC50 strictly below 30 µM. Does it hold?
Result block: 0
